meta.source: patent US20240150440A1

# system.tested: T1, SARS-CoV-2 Beta Variant RBD (SARS-CoV-2 Beta variant)
# T1 construct: domain: RBD; coated on ELISA plates
# experiment: ELISA, RBD coated
EC50 less than 70 nM is true; EC50 greater than or equal to 70 nM is false.

Check out these entries, answers already filled in.
binder	class.assignment
PP1094 MBP-5HVZ-PAPA-RN-1-H6 (VHH) VHH: QVQLVESGGGLVQPGGSLRLSCAASGYIFEGGPTAWFRQAPGKGREFVAAITTSGETSYAYSVKGRFTISRDNAKNTVYLQMNSLKPEDTAVYYCNATDRDETGYDYWGQGTQVTVSS	false
PP916 MBP-5HVZ-S3b-A8-H6 (VHH, Form: Dimer) VHH: QVQLVESGGGLVQPGGSLRLSCAASGSIISRVKVHWFRQAPGKSREWVAGIDSGTASYYSDSVKGRFTISRDNAKNTVYLQMNSLKPEDTAVYYCAAENRGYGVDWGQGTQVTVSS	true
PP931 MBP-5HVZ-R5a-F5-H6 (VHH, Form: Dimer) VHH: QVQLVESGGGLVQPGGSLRLSCAASGYHASILAMHWVRQAPGKEREWVASMTWSDMTQYSDSVKGRFTISRDNAKNTVYLQMNSLKPEDTAVYYCAATYVTRDRPWTHWGQGTQVTVSS	false
PP788 (VHH, not shown: large carriers; small tags and cut ends) VHH: QVQLVESGGGLVQPGGSLRLSCAASGSIESINAIHWFRQAPGKAREEVAAITENDVDYYADSVKGRFTISRDNAKNTVYLQMNSLKPEDTAVYYCASLSSGYQYVGFRYWGQGTQVTVSS	true

Could you now look at the following binder, please?
Request: Please determine if PP1114 MBP-5HVZ-PAPA-RN-30-H6 (VHH, Form: Dimer) VHH: QVQLVESGGGLVQPGGSLRLSCAASGIPASYLNMHWFRQAPGKQREWVAGAGGTNSNYYQDSVKGRFTISRDNAKNTVYLQMNSLKPEDTAVYYCAALDGAESYDYVYPVWGQGTQVTVSS is below 70 nM in terms of EC50.
Response: true
